These measurements were taken from PubChem BioAssay AID463173.

Test system: DeltatarO mutant
Assay: S. aureus survival, RN4220 and DeltatarO strains – OD600, teichoic acid synthesis inhibitors, primary screen (AID 463173)
Conditions: S. aureus RN4220 wild type/DeltatarO growth, OD600, 18 h, stronger effect = lower value, screened at 18.75 µg/mL (by protocol)
About 4,300 (8.3%) of roughly 52,000 compounds were called active. Shown is part of a subset that was picked to be rich in actives.
endpointLabel: survival (%)
I only need the number, in %, no unit after it.

1) O=C(COc1ccc(F)cc1)Nc1ccc2nc(SCCOc3ccccc3)sc2c1	87
2) COc1ccc(OCC(O)Cn2c(C(C)C)nc3ccccc32)cc1 (stereo unspecified)	88
3) COC(=O)c1c(-c2ccc(Cl)cc2)noc1N1CCN(c2cccc(C)c2C)CC1	79
4) CCOC(=O)Cc1ccc(NC(=O)N2CCC(CN3CCCCCC3)CC2)cc1	80
5) Cc1ccc2nc(N(Cc3cccnc3)C(=O)c3ccc4c(c3)OCCO4)sc2c1	70
6) Cc1ccc(Cl)cc1Nc1nn2c(=O)c3ccc(C(=O)NC4CCC(C)CC4)cc3nc2s1 (stereo unspecified)	100
7) O=C(Nc1ccccc1[N+](=O)[O-])c1csnn1	73
8) CCc1ccccc1N(C)C(=O)Cn1cnc2sc(C)c(S(=O)(=O)N3CCC(C)CC3)c2c1=O	71

Find the recorded survival belonging to "Cc1ccc(OCc2nc3ccccc3n2CC(C)C)cc1" and report it.
1

What would you report for CCCCC(=O)N1CCc2cc(OC)c(OC)cc2C1COc1ccc(C(=O)OCC)cc1 (stereo unspecified) ?
70

What would you report for "COc1ccc(OCc2nc3ccccc3n2C(C)C)cc1" ?
88
